- System: HepG2 cells
- method: MTT cytotoxicity analysis, liver cancer cells HepG2
- Type: cell-based, human
- test conditions: HepG2 liver cancer cells, 48 hours of treatment, Lipofectamine RNAiMAX transfection reagent, MTT; read-out: Median inhibitory concentration IC50
[Ψ] = pseudouridine
Reported IC50 by item:
Field: numeric (µM). Do not append units.

- GL1 mimic: double-stranded RNA from Ganoderma lucidum tRNA-Ile(GAU); antisense SEQ ID NO: 2, sense SEQ ID NO: 11, length 33 (nucleic acid, RNA, backbone not given here) antisense: AAGCCUAUAAUUUAAAGGUAGAAUAAUUUCUUG sense: CAAGAAAUUAUUCUACCUUUAAAUUAUAGGCUU: 0.35
- GL10 mimic: chemically modified GL2 double-stranded RNA (5-methyluridine and pseudouridine); antisense SEQ ID NO: 20, sense SEQ ID NO: 24, length 41 (nucleic acid, antisense: RNA, [Ψ] at 20, backbone not given here; sense: RNA, backbone not given here; further chemistry not fully specified) antisense: AUAAGGAAUCUGUAGAAGTUCGAUUCUUCUUGGGCUUACCA sense: UGGUAAGCCCAAGAAGAAUCGAACUUCUACAGAUUCCUUAU: 0.144

Bench note: what IC50 did GL12 mimic: chemically modified GL2 double-stranded RNA (pseudouridine); antisense SEQ ID NO: 22, sense SEQ ID NO: 26, length 41 (nucleic acid, antisense: RNA, [Ψ] at 20, backbone not given here; sense: RNA, backbone not given here) antisense: AUAAGGAAUCUGUAGAAGUUCGAUUCUUCUUGGGCUUACCA sense: UGGUAAGCCCAAGAAGAAUCGAACUUCUACAGAUUCCUUAU show?
0.183
